tested on: kochia (Bassia scoparia); test: Test A preemergence, kochia; format: in vivo; settings: Preemergence, 125 g ai/ha; visual injury, 0 to 100 scale (0 no effect, 100 complete control), approx. 10 days
ENDPOINT NAME: Plant response rating, Kochia
Please respond with just the number, no unit label.

Requested read-out: Plant response rating, Kochia. Entry: Cc1cc(C)c(C2=NOC(C)(C)C2)cc1NS(=O)(=O)C(F)(F)F [Compound 206]
80

Requested read-out: Plant response rating, Kochia. Entry: Cc1cc(Cl)c(N(S(=O)(=O)C(F)(F)F)S(=O)(=O)C(F)(F)F)cc1C1=NOC2(CCCCC2)C1 [Compound 217]
70

Requested read-out: Plant response rating, Kochia. Entry: COC(=O)N(c1cc(N2CCC3(CCCCC3)C2=O)c(C)cc1C)S(=O)(=O)C(F)(F)F [Compound 266]
0

Requested read-out: Plant response rating, Kochia. Entry: CC(=O)N(c1cc(C2=NOC3(CCCC3)C2)c(C)cc1C)S(=O)(=O)C(F)(F)F [Compound 220]
20

Requested read-out: Plant response rating, Kochia. Entry: Cc1cc(C)c(N(S(=O)(=O)C(F)(F)F)S(=O)(=O)C(F)(F)F)cc1N1CCC2(CCCC2)C1=O [Compound 280]
40

Requested read-out: Plant response rating, Kochia. Entry: Cc1cc(F)c(C(=O)N2CCC(C#N)CC2)cc1N(S(=O)(=O)C(F)(F)F)S(=O)(=O)C(F)(F)F [Compound 239]
30

Requested read-out: Plant response rating, Kochia. Entry: Cc1cc(F)c(C(=O)N2CCOCC2)cc1N(S(=O)(=O)C(F)(F)F)S(=O)(=O)C(F)(F)F [Compound 237]
90

Requested read-out: Plant response rating, Kochia. Entry: COC1CCN(C(=O)c2cc(NS(=O)(=O)C(F)(F)F)c(Cl)cc2C)CC1 [Compound 246]
40

Requested read-out: Plant response rating, Kochia. Entry: Cc1cc(F)c(C(=O)N2CCOCC2)cc1NS(=O)(=O)C(F)(F)F [Compound 240]
70

Requested read-out: Plant response rating, Kochia. Entry: Cc1cc(C)c(N(S(=O)(=O)C(F)(F)F)S(=O)(=O)C(F)(F)F)cc1N1CC2(CCCCC2)OC1=O [Compound 269]
70

Requested read-out: Plant response rating, Kochia. Entry: Cc1cc(C)c(C(=O)N2CCC3(CCCC3)CC2)cc1NS(=O)(=O)C(F)(F)F [Compound 223]
0

----------
tested on: galium (catchweed bedstraw, Galium aparine); assay: Test A1 postemergence, galium; assay type: in vivo; conditions: Postemergence, 125 g ai/ha; 0 to 100 scale
Is Plant response rating, Galium at least 80? Then yes. If not, no.

Determine whether measured Plant response rating, Galium meets or exceeds 80 for `Cc1c(C(=O)N2CCOCC2)cc(NS(=O)(=O)C(F)(F)F)c(Cl)c1F`
yes

Determine whether measured Plant response rating, Galium meets or exceeds 80 for `Cc1c(NS(=O)(=O)C(F)(F)F)cc(C(=O)N2CCOCC2)c(C)c1Cl`
yes

Determine whether measured Plant response rating, Galium meets or exceeds 80 for Cc1cc(F)c(C2=NOC3CCCC23)cc1NS(=O)(=O)C(F)(F)F (stereo not shown)
no

Determine whether measured Plant response rating, Galium meets or exceeds 80 for `Cc1c(NS(=O)(=O)C(F)(F)F)cc(C(=O)N2CCC(C)CC2)c(C)c1C`
yes

Determine whether measured Plant response rating, Galium meets or exceeds 80 for Cc1cc(C)c(N(COC(=O)C(C)(C)C)S(=O)(=O)C(F)(F)F)cc1C1=NOC2COCC12 (stereo not shown)
yes

Determine whether measured Plant response rating, Galium meets or exceeds 80 for `Cc1c(NS(=O)(=O)C(F)(F)F)cc(C(=O)N(C)C)c(C)c1Cl`
no

Determine whether measured Plant response rating, Galium meets or exceeds 80 for Cc1cc(C)c(N(COC(=O)OC(C)C)S(=O)(=O)C(F)(F)F)cc1C1=NOC2CCCC12 (stereo not shown)
no

Determine whether measured Plant response rating, Galium meets or exceeds 80 for CCC1CC(c2cc(N(COC(=O)C(C)(C)C)S(=O)(=O)C(F)(F)F)c(C)cc2C)=NO1 (stereo not shown)
no

Determine whether measured Plant response rating, Galium meets or exceeds 80 for `Cc1c(C(=O)N2CCCCC2)cc(NS(=O)(=O)C(F)(F)F)c(Cl)c1F`
yes

Determine whether measured Plant response rating, Galium meets or exceeds 80 for `Cc1cc(C)c(N(COC(=O)C(C)(C)C)S(=O)(=O)C(F)(F)F)cc1C(=O)N1CCC(C)CC1`
no

Determine whether measured Plant response rating, Galium meets or exceeds 80 for CCC1ON=C(c2cc(N(C(=O)OCC(C)C)S(=O)(=O)C(F)(F)F)c(C)cc2C)C1CC (stereo not shown)
yes

Determine whether measured Plant response rating, Galium meets or exceeds 80 for Cc1cc(C)c(N(COC(=O)C(C)(C)C)S(=O)(=O)C(F)(F)F)cc1C1=NOC2OCCC12 (stereo not shown)
yes

----------
system: Foxtail, Giant (giant foxtail, Setaria faberi); assay: Test A postemergence, Foxtail, Giant; type: in vivo; conditions: Postemergence, 500 g ai/ha; visual injury vs untreated controls after approx. 10 days; 0 to 100 scale (0 no effect, 100 complete control)
ENDPOINT NAME: Foxtail, Giant plant response rating
Please respond with just the number, no unit label.

Requested read-out: Foxtail, Giant plant response rating. Entry: `Cc1cc(C)c(C2=NOC(C)(C)C2)cc1NS(=O)(=O)C(F)(F)F`
60

Requested read-out: Foxtail, Giant plant response rating. Entry: Cc1cc(C)c(C2=NOC3CCCCC23)cc1NS(=O)(=O)C(F)(F)F (stereo not shown)
80

Requested read-out: Foxtail, Giant plant response rating. Entry: `Cc1c(NS(=O)(=O)C(F)(F)F)cc(C(=O)N2CCC(F)CC2)c(C)c1F`
40

Requested read-out: Foxtail, Giant plant response rating. Entry: `CCCn1nccc(-c2cc(NS(=O)(=O)C(F)(F)F)c(C)cc2C)c1=O`
90

Requested read-out: Foxtail, Giant plant response rating. Entry: `Cc1cc(C)c(C2=NOC3(CCC4(CC3)OCCO4)C2)cc1NS(=O)(=O)C(F)(F)F`
90

Requested read-out: Foxtail, Giant plant response rating. Entry: `Cc1cc(C(F)(F)F)c(C(=O)N2CCCCC2)cc1NS(=O)(=O)C(F)(F)F`
10

Requested read-out: Foxtail, Giant plant response rating. Entry: `Cc1cc(C)c(N(S(=O)(=O)C(F)(F)F)S(=O)(=O)C(F)(F)F)cc1C1=NOC2(CCC(C)(C)CC2)C1`
0

----------
Exercise: state measured Plant response rating, Ragweed for each of the molecules provided.
tested on: ragweed (common ragweed, Ambrosia artemisiifolia); assay: Test A preemergence, ragweed; assay type: in vivo; details: Preemergence, 500 g ai/ha; 0 to 100 scale (0 no effect, 100 complete control)
Please respond with just the number, no unit label.

Requested read-out: Plant response rating, Ragweed. Entry: Cc1cc(C)c(N(S(=O)(=O)C(F)(F)F)S(=O)(=O)C(F)(F)F)cc1-c1ccnn(C)c1=O [Compound 76]
90

Requested read-out: Plant response rating, Ragweed. Entry: Cc1cc(C)c(-n2nccc(C)c2=O)cc1NS(=O)(=O)C(F)(F)F [Compound 84]
0

Requested read-out: Plant response rating, Ragweed. Entry: COc1c(Cl)nn(C)c(=O)c1-c1cc(NS(=O)(=O)C(F)(F)F)c(C)cc1C [Compound 64]
40

----------
Exercise: state measured Plant response rating, Galium for each of the molecules provided.
test system: galium (catchweed bedstraw, Galium aparine); assay: Test A postemergence, galium; type: in vivo; conditions: Postemergence, 125 g ai/ha; 0 to 100 scale (0 no effect, 100 complete control)
Please respond with just the number, no unit label.

So what Plant response rating, Galium did Cc1cc(C)c(N(COC(=O)c2ccccc2)S(=O)(=O)C(F)(F)F)cc1C1=NOC2(CCCC2)C1 [Compound 149] get with galium (catchweed bedstraw, Galium aparine)?
60

So what Plant response rating, Galium did Cc1cc(C)c(C2=NOC3(C2)CC(C)CC(C)C3)cc1NS(=O)(=O)C(F)(F)F (single isomer, unassigned) [Compound 167] get with galium (catchweed bedstraw, Galium aparine)?
80

So what Plant response rating, Galium did C#CCN(CC#C)C(=O)c1cc(NS(=O)(=O)C(F)(F)F)c(C)cc1C [Compound 187] get with galium (catchweed bedstraw, Galium aparine)?
80

So what Plant response rating, Galium did Cc1cc(F)c(C(=O)N2CCCCC2)cc1NS(=O)(=O)C(F)(F)F [Compound 211] get with galium (catchweed bedstraw, Galium aparine)?
60

So what Plant response rating, Galium did C#CCN(C)C(=O)c1cc(NS(=O)(=O)C(F)(F)F)c(C)cc1C [Compound 189] get with galium (catchweed bedstraw, Galium aparine)?
90

So what Plant response rating, Galium did Cc1cc(C(F)(F)F)c(C(=O)N2CCCCC2)cc1NS(=O)(=O)C(F)(F)F [Compound 180] get with galium (catchweed bedstraw, Galium aparine)?
70

So what Plant response rating, Galium did COC(=O)N(c1cc(N2CCC3(CCCCC3)C2=O)c(C)cc1C)S(=O)(=O)C(F)(F)F [Compound 266] get with galium (catchweed bedstraw, Galium aparine)?
30

So what Plant response rating, Galium did Cc1cc(C)c(C2=NOC3(CCC(F)(F)CC3)C2)cc1NS(=O)(=O)C(F)(F)F [Compound 172] get with galium (catchweed bedstraw, Galium aparine)?
90

So what Plant response rating, Galium did CC(=O)N(c1cc(N2CCC3(CCCCC3)C2=O)c(C)cc1C)S(=O)(=O)C(F)(F)F [Compound 265] get with galium (catchweed bedstraw, Galium aparine)?
90

So what Plant response rating, Galium did C#CCN(C)C(=O)c1cc(N(S(=O)(=O)C(F)(F)F)S(=O)(=O)C(F)(F)F)c(C)c(F)c1C [Compound 147] get with galium (catchweed bedstraw, Galium aparine)?
80

So what Plant response rating, Galium did Cc1cc(Cl)c(C(=O)N2CCOCC2)cc1N(S(=O)(=O)C(F)(F)F)S(=O)(=O)C(F)(F)F [Compound 250] get with galium (catchweed bedstraw, Galium aparine)?
50

So what Plant response rating, Galium did Cc1cc(Cl)c(C2=NOC(C)(C)C2)cc1NS(=O)(=O)C(F)(F)F [Compound 183] get with galium (catchweed bedstraw, Galium aparine)?
70

So what Plant response rating, Galium did Cc1cc(Cl)c(NS(=O)(=O)C(F)(F)F)cc1C1=NOC2(CCCCC2)C1 [Compound 221] get with galium (catchweed bedstraw, Galium aparine)?
80

So what Plant response rating, Galium did Cc1cc(Cl)c(N(S(=O)(=O)C(F)(F)F)S(=O)(=O)C(F)(F)F)cc1C1=NOC2(CCCCC2)C1 [Compound 217] get with galium (catchweed bedstraw, Galium aparine)?
80

So what Plant response rating, Galium did Cc1cc(F)c(C(=O)N2CC(C)OC(C)C2)cc1NS(=O)(=O)C(F)(F)F (stereo not drawn) [Compound 238] get with galium (catchweed bedstraw, Galium aparine)?
80

So what Plant response rating, Galium did Cc1cc(F)c(C(=O)N2CCC(C#N)CC2)cc1NS(=O)(=O)C(F)(F)F [Compound 236] get with galium (catchweed bedstraw, Galium aparine)?
40

So what Plant response rating, Galium did Cc1cc(Cl)c(N(S(=O)(=O)C(F)(F)F)S(=O)(=O)C(F)(F)F)cc1C(=O)N1CCC(Cl)CC1 [Compound 200] get with galium (catchweed bedstraw, Galium aparine)?
60

So what Plant response rating, Galium did CCC(C)C(=O)OCN(c1cc(C2=NOC3(CCCC3)C2)c(C)cc1C)S(=O)(=O)C(F)(F)F (stereo not drawn) [Compound 151] get with galium (catchweed bedstraw, Galium aparine)?
70

So what Plant response rating, Galium did Cc1cc(C)c(C2=NOC3CCCC23)cc1NS(=O)(=O)C(F)(F)F (stereo not drawn) [Compound 166] get with galium (catchweed bedstraw, Galium aparine)?
80

So what Plant response rating, Galium did Cc1cc(Cl)c(C(=O)N(C)C)cc1N(S(=O)(=O)C(F)(F)F)S(=O)(=O)C(F)(F)F [Compound 256] get with galium (catchweed bedstraw, Galium aparine)?
60

So what Plant response rating, Galium did Cc1cc(C)c(N(S(=O)(=O)C(F)(F)F)S(=O)(=O)C(F)(F)F)cc1C1=NOC2(CCCCCC2)C1 [Compound 158] get with galium (catchweed bedstraw, Galium aparine)?
70

So what Plant response rating, Galium did C#CCN(CC#C)C(=O)c1cc(N(S(=O)(=O)C(F)(F)F)S(=O)(=O)C(F)(F)F)c(C)cc1C [Compound 181] get with galium (catchweed bedstraw, Galium aparine)?
60

So what Plant response rating, Galium did Cc1cc(C)c(N(S(=O)(=O)C(F)(F)F)S(=O)(=O)C(F)(F)F)cc1C(=O)N1CCCOCC1 [Compound 276] get with galium (catchweed bedstraw, Galium aparine)?
80

So what Plant response rating, Galium did Cc1cc(Cl)c(C(=O)N2CCCCC2)cc1N(S(=O)(=O)C(F)(F)F)S(=O)(=O)C(F)(F)F [Compound 253] get with galium (catchweed bedstraw, Galium aparine)?
70

So what Plant response rating, Galium did Cc1cc(C)c(C2=NOC(C)(CCl)C2)cc1NS(=O)(=O)C(F)(F)F (stereo not drawn) [Compound 226] get with galium (catchweed bedstraw, Galium aparine)?
60

So what Plant response rating, Galium did Cc1cc(C)c(N(S(=O)(=O)C(F)(F)F)S(=O)(=O)C(F)(F)F)cc1C1=NOC(C)(CCl)C1 (stereo not drawn) [Compound 227] get with galium (catchweed bedstraw, Galium aparine)?
40

So what Plant response rating, Galium did Cc1cc(Cl)c(NS(=O)(=O)C(F)(F)F)cc1C1=NOC2(CCCC2)C1 [Compound 204] get with galium (catchweed bedstraw, Galium aparine)?
50
